FYI, the data here is from patent US12227500B2.

- assayed-system: panel of 60 human kinases (Homo sapiens, UniProt Q7L7X3)
- Construct: purchased Reaction Biology Corp
- Sequence (Q7L7X3 whole entry): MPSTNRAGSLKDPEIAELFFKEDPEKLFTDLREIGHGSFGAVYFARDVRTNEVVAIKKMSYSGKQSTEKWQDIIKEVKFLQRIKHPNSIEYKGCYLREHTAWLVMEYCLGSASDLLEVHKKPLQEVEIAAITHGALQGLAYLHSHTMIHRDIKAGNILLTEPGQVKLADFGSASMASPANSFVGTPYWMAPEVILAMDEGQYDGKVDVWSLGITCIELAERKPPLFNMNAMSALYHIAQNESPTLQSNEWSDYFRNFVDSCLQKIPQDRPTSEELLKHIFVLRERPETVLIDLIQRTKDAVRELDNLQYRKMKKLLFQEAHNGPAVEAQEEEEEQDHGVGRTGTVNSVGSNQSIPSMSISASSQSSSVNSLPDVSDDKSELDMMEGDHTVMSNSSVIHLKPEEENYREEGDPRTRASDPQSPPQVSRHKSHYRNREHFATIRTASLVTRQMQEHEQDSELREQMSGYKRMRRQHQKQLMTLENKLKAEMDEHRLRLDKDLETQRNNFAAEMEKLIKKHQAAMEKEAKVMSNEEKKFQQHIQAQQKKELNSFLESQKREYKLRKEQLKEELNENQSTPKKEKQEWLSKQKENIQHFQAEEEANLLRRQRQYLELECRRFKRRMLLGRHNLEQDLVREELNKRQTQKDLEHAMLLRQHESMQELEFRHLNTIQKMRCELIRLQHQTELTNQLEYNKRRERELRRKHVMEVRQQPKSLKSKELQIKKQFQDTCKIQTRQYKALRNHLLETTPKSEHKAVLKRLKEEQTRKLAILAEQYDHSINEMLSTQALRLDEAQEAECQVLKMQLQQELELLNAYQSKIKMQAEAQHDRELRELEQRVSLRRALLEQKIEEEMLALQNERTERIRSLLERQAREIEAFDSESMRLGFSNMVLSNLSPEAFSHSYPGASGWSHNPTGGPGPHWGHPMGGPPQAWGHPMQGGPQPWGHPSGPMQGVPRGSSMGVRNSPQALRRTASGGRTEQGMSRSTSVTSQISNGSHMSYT
- test-name: Radiolabeled ATP kinase assay, panel of 60 kinases (Table S5)
- Type: biochemical
- reported-conditions: TAOK1; 0.1 μM; 10 μM ATP; read-out: % Enzyme Activity (relative to DSMO controls)
Collected remaining activity at 0.1 µM values appear next to each entry.

Observe how each entry below is paired with its result.
CN1CCN(Cc2ccc(-c3cnc4[nH]cc(-c5ccoc5)c4c3)cc2)CC1 [Compound 7w]    90%
CN1CCN(Cc2ccc(-c3cnc4[nH]cc(-c5cccc(Cl)c5)c4c3)cc2)CC1 [Compound 7ad]    75.4%
Cc1nn(C)c(C)c1-c1c[nH]c2ncc(-c3ccc(CN4CCN(C)CC4)cc3)cc12 [Compound 7ai]    93.3%
CN1CCN(Cc2ccc(-c3cnc4[nH]cc(-c5ccncc5)c4c3)cc2)CC1 [Compound 7n]    87.4%

Kindly note the recorded remaining activity at 0.1 µM for CN1CCN(Cc2ccc(-c3cnc4[nH]cc(-c5ccc6[nH]ccc6c5)c4c3)cc2)CC1 [Compound 1, reference compound] , which is 63.5%

Kindly note the recorded remaining activity at 0.1 µM for CN1CCN(Cc2ccc(-c3cnc4[nH]cc(-c5ccc6c(c5)OCCO6)c4c3)cc2)CC1 [Compound 7d] , which is 37.3%

Kindly note the recorded remaining activity at 0.1 µM for COc1ccccc1-c1c[nH]c2ncc(-c3ccc(CN4CCN(C)CC4)cc3)cc12 [Compound 7at] , which is 40.5%

Kindly note the recorded remaining activity at 0.1 µM for CN1CCN(Cc2ccc(-c3cnc4[nH]cc(-c5cnn(Cc6ccccc6)c5)c4c3)cc2)CC1 [Compound 7ah] , which is 62.1%

Kindly note the recorded remaining activity at 0.1 µM for CN1CCN(Cc2ccc(-c3cnc4[nH]cc(-c5ccccc5Cl)c4c3)cc2)CC1 [Compound 7as] , which is 39.3%

----------
- assayed-system: panel of 60 human kinases (Homo sapiens)
- Construct: purchased Reaction Biology Corp
- test-name: Radiolabeled ATP kinase assay, panel of 60 kinases (Table S5)
- Assay type: biochemical
- reported-conditions: Aurora B; 0.1 μM; 10 μM ATP; read-out: % Enzyme Activity (relative to DSMO controls)
// classify: if (remaining activity at 0.1 µM < 90%) Y else N

Recorded results for 4 compounds are shown here.
CN1CCN(Cc2ccc(-c3cnc4[nH]cc(-c5ccc6c(c5)OCCO6)c4c3)cc2)CC1    Y
CN1CCN(Cc2ccc(-c3cnc4[nH]cc(-c5cnn(Cc6ccccc6)c5)c4c3)cc2)CC1    Y
CN1CCN(Cc2ccc(-c3cnc4[nH]cc(-c5ccncc5)c4c3)cc2)CC1    Y
CN1CCN(Cc2ccc(-c3cnc4[nH]cc(-c5ccccc5Cl)c4c3)cc2)CC1    Y

Pending compound:
Request: hey, is remaining activity at 0.1 µM for `Cc1nn(C)c(C)c1-c1c[nH]c2ncc(-c3ccc(CN4CCN(C)CC4)cc3)cc12` lower than 90% or not?
Result: N

----------
- assayed-system: panel of 60 human kinases (Homo sapiens, UniProt Q9Y4K4)
- Construct: purchased Reaction Biology Corp
- Sequence (Q9Y4K4 whole entry): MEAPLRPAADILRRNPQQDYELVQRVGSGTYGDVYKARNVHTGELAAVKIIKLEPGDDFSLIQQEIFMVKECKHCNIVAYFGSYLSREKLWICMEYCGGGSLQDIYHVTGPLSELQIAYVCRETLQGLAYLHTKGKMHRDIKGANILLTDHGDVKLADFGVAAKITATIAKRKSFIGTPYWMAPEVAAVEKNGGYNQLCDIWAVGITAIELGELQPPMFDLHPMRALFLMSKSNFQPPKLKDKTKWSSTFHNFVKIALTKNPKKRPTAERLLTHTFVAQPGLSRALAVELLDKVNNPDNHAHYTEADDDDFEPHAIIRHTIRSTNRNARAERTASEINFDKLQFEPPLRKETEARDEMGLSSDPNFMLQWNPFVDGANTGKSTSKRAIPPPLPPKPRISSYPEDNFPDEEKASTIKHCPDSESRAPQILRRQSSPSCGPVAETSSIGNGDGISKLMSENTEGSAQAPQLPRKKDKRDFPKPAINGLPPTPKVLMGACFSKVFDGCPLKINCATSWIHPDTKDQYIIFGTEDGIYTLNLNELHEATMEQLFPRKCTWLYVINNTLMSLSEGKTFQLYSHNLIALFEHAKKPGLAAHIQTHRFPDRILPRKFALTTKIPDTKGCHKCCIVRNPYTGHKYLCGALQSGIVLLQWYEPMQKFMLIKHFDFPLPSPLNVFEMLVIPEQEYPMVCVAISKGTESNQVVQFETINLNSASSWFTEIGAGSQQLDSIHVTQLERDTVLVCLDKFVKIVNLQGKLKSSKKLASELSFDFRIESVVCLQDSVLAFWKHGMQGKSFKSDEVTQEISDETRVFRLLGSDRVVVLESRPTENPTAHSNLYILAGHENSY
- test-name: Radiolabeled ATP kinase assay, panel of 60 kinases (Table S5)
- Type: biochemical
- reported-conditions: KHS/MAPK4K5; 0.1 μM; 10 μM ATP; read-out: % Enzyme Activity (relative to DSMO controls)
Collected remaining activity at 0.1 µM values appear next to each entry.
Reply numerically in %, unit not repeated.

Kindly note the recorded remaining activity at 0.1 µM for `COc1ccccc1-c1c[nH]c2ncc(-c3ccc(CN4CCN(C)CC4)cc3)cc12` , which is 3.35

Kindly note the recorded remaining activity at 0.1 µM for `CN1CCN(Cc2ccc(-c3cnc4[nH]cc(-c5ccc6c(c5)OCCO6)c4c3)cc2)CC1` , which is 4.17

Kindly note the recorded remaining activity at 0.1 µM for `Cc1nn(C)c(C)c1-c1c[nH]c2ncc(-c3ccc(CN4CCN(C)CC4)cc3)cc12` , which is 16.5

Kindly note the recorded remaining activity at 0.1 µM for CN1CCN(Cc2ccc(-c3cnc4[nH]cc(-c5ccc6[nH]ccc6c5)c4c3)cc2)CC1 [Compound 1, reference compound] , which is 11

Kindly note the recorded remaining activity at 0.1 µM for `CN1CCN(Cc2ccc(-c3cnc4[nH]cc(-c5cnn(Cc6ccccc6)c5)c4c3)cc2)CC1` , which is 6.09

----------
- assayed-system: panel of 60 human kinases (Homo sapiens, UniProt Q13627)
- Construct: purchased Reaction Biology Corp
- test-name: Radiolabeled ATP kinase assay, panel of 60 kinases (Table S5)
- Format: biochemical
- reported-conditions: DYRK/RK1A; 0.1 μM; 10 μM ATP; read-out: % Enzyme Activity (relative to DSMO controls)
result-type: remaining activity at 0.1 µM (%)
Reply numerically in %, unit not repeated.

CN1CCN(Cc2ccc(-c3cnc4[nH]cc(-c5ccc6c(c5)OCCO6)c4c3)cc2)CC1 [Compound 7d]    3.15
CN1CCN(Cc2ccc(-c3cnc4[nH]cc(-c5ccoc5)c4c3)cc2)CC1 [Compound 7w]    71.2

Kindly note the recorded remaining activity at 0.1 µM for CN1CCN(Cc2ccc(-c3cnc4[nH]cc(-c5cccc(Cl)c5)c4c3)cc2)CC1 [Compound 7ad] , which is 53.4

Kindly note the recorded remaining activity at 0.1 µM for CN1CCN(Cc2ccc(-c3cnc4[nH]cc(-c5ccccc5Cl)c4c3)cc2)CC1 [Compound 7as] , which is 42

Kindly note the recorded remaining activity at 0.1 µM for Cc1nn(C)c(C)c1-c1c[nH]c2ncc(-c3ccc(CN4CCN(C)CC4)cc3)cc12 [Compound 7ai] , which is 41.7

Kindly note the recorded remaining activity at 0.1 µM for COc1ccccc1-c1c[nH]c2ncc(-c3ccc(CN4CCN(C)CC4)cc3)cc12 [Compound 7at] , which is 57.4

Kindly note the recorded remaining activity at 0.1 µM for CN1CCN(Cc2ccc(-c3cnc4[nH]cc(-c5ccncc5)c4c3)cc2)CC1 [Compound 7n] , which is 40.3

Kindly note the recorded remaining activity at 0.1 µM for CN1CCN(Cc2ccc(-c3cnc4[nH]cc(-c5ccc6[nH]ccc6c5)c4c3)cc2)CC1 [Compound 1, reference compound] , which is 41

Kindly note the recorded remaining activity at 0.1 µM for CN1CCN(Cc2ccc(-c3cnc4[nH]cc(-c5cnn(Cc6ccccc6)c5)c4c3)cc2)CC1 [Compound 7ah] , which is 4.52

----------
- test-name: Plasma and brain concentration 30 min after IP injection
- Type: in vivo, mouse
- reported-conditions: male, C57BL6/J, mouse, brain/plasma; mice, ip dosing, 20 mg/kg, 30 minutes; read-out: B/P
result-type: Kp at 30 min
Format: numeric value only, no unit, no commentary.

O[C@@H]1CCN(Cc2ccc(-c3cnc4[nH]cc(-c5cccc(F)c5)c4c3)cc2)C1 [Compound 12i]    2.8

Kindly note the recorded Kp at 30 min for CN1CCN(Cc2ccc(-c3cnc4[nH]cc(-c5ccc6[nH]ccc6c5)c4c3)cc2)CC1 [Compound 1, reference compound] , which is 0.4

Kindly note the recorded Kp at 30 min for OCCN1CCN(Cc2ccc(-c3cnc4[nH]cc(-c5cccc(Cl)c5)c4c3)cc2)CC1 [Compound 12k] , which is 4

Kindly note the recorded Kp at 30 min for OCCN1CCN(Cc2ccc(-c3cnc4[nH]cc(-c5cccc(F)c5)c4c3)cc2)CC1 [Compound 12h] , which is 3.3

----------
- System: human ES motor neurons carrying the ALS-causing SOD1^A4V mutation
- test-name: cells
- Type: cell-based
- reported-conditions: Homo sapiens, Neuron, 72 h, CPA (33 μM) + compound (1 μM); read-out: Motor Neuron Survival, % untreated
// classify: if (viability at 1 µM < 50%) 1 else -1

CN1CCN(Cc2ccc(-c3cnc4[nH]cc(-c5ccoc5)c4c3)cc2)CC1    1
COC(=O)Nc1ccc(-c2c[nH]c3ncc(-c4ccc(CN5CCN(C)CC5)cc4)cc23)cc1    -1
C[C@@H](NC(=O)Nc1cccc(-c2c[nH]c3ncc(-c4ccc(CN5CCN(C)CC5)cc4)cc23)c1)c1ccccc1    1

Request: hey, is viability at 1 µM for CN1CCN(Cc2ccc(-c3cnc4[nH]cc(-c5ccc6[nH]ccc6c5)c4c3)cc2)CC1 [Compound 1, reference compound] lower than 50% or not?
Result: -1

Request: hey, is viability at 1 µM for CN1C2CCC1CN(Cc1ccc(-c3cnc4[nH]cc(-c5ccc6[nH]ccc6c5)c4c3)cc1)C2 [Compound 12b] lower than 50% or not?
Result: 1

Request: hey, is viability at 1 µM for `CN1CCN(Cc2ccc(-c3cnc4[nH]cc(-c5ccc(F)c(C(=O)NCc6ccco6)c5)c4c3)cc2)CC1` lower than 50% or not?
Result: 1

Request: hey, is viability at 1 µM for `CN1CCN(Cc2ccc(-c3cnc4[nH]cc(-c5ccc(CN6CCOCC6)s5)c4c3)cc2)CC1` lower than 50% or not?
Result: 1

----------
- assayed-system: panel of 60 human kinases (Homo sapiens)
- Construct: purchased Reaction Biology Corp
- test-name: Radiolabeled ATP kinase assay, panel of 60 kinases (Table S5)
- Assay type: biochemical
- reported-conditions: c-MET; 0.1 μM; 10 μM ATP; read-out: % Enzyme Activity (relative to DSMO controls)
Collected remaining activity at 0.1 µM values appear next to each entry.
Reply numerically in %, unit not repeated.

Kindly note the recorded remaining activity at 0.1 µM for `CN1CCN(Cc2ccc(-c3cnc4[nH]cc(-c5ccccc5Cl)c4c3)cc2)CC1` , which is 84.1

Kindly note the recorded remaining activity at 0.1 µM for `CN1CCN(Cc2ccc(-c3cnc4[nH]cc(-c5ccc6c(c5)OCCO6)c4c3)cc2)CC1` , which is 110

Kindly note the recorded remaining activity at 0.1 µM for CN1CCN(Cc2ccc(-c3cnc4[nH]cc(-c5ccc6[nH]ccc6c5)c4c3)cc2)CC1 [Compound 1, reference compound] , which is 55.9

Kindly note the recorded remaining activity at 0.1 µM for `COc1ccccc1-c1c[nH]c2ncc(-c3ccc(CN4CCN(C)CC4)cc3)cc12` , which is 86.8
